Below is a list of entries, each paired with its recorded IC50 value.
Target: Signal transducer and activator of transcription 5A (Homo sapiens)
Sequence (P42229 whole entry): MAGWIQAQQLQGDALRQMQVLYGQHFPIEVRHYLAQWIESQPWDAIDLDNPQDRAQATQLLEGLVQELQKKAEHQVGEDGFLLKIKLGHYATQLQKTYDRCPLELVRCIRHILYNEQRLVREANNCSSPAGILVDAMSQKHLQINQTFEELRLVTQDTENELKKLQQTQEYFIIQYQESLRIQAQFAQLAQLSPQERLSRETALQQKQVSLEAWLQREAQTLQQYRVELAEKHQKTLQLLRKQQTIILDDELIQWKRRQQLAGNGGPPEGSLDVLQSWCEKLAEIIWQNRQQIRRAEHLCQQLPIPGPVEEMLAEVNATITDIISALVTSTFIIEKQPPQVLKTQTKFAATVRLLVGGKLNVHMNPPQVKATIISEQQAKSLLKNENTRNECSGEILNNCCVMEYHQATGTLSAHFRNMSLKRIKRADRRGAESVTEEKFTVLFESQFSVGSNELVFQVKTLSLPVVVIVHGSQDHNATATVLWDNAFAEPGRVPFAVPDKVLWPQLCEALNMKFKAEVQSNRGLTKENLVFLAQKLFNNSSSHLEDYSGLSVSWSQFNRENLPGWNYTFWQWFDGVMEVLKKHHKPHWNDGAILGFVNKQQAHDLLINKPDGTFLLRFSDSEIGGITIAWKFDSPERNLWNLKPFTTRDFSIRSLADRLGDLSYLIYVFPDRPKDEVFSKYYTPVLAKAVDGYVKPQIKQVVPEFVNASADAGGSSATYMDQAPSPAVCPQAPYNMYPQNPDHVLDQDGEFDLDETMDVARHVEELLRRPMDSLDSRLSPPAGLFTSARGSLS
Entry rule: numbers only, all in µM.

| compound | IC50 [µM] |
| --- | --- |
| O=C(Nc1cccc(C(=O)Nc2ccc(S(=O)(=O)O)c3cc(S(=O)(=O)O)cc(S(=O)(=O)O)c23)c1)Nc1cccc(C(=O)Nc2ccc(S(=O)(=O)O)c3cc(S(=O)(=O)O)cc(S(=O)(=O)O)c23)c1 | 8.8 |

Next compound, please.
## Task If you can, please state the reported IC50 value of Cc1ccc(C(=O)Nc2ccc(S(=O)(=O)O)c3cc(S(=O)(=O)O)cc(S(=O)(=O)O)c23)cc1NC(=O)c1cccc(NC(=O)Nc2cccc(C(=O)Nc3cc(C(=O)Nc4ccc(S(=O)(=O)O)c5cc(S(=O)(=O)O)cc(S(=O)(=O)O)c45)ccc3C)c2)c1 [SURAMIN HEXASODIUM] .
## Result 9.4
